Target: T1, soluble KDR (VEGF Receptor 2 D1-7, Cat. #676490, Calbiochem) (human, UniProt P35968 20-764)
T1 construct: extracellular domain; Bought reagent; also called soluble human KDR; immobilized soluble KDR
T1 sequence (P35968 20-764): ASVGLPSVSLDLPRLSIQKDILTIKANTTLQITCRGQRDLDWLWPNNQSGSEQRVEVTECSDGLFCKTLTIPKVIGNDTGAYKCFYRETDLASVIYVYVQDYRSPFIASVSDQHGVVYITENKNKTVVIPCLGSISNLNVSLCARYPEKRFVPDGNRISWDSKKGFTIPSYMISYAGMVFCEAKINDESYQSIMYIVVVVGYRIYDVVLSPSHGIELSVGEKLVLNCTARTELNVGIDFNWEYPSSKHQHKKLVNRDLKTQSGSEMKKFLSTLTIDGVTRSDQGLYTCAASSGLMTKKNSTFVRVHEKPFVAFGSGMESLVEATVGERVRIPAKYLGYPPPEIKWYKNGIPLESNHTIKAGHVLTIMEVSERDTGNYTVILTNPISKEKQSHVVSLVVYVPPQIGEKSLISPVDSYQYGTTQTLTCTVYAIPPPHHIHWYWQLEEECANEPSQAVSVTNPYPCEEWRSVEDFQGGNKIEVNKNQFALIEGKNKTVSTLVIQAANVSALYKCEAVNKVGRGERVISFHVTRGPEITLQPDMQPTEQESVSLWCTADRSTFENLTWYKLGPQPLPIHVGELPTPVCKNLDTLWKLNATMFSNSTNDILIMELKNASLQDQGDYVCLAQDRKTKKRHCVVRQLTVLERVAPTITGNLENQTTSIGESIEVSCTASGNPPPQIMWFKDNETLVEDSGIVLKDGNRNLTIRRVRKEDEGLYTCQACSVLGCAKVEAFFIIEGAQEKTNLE
Assay: ELISA, plate-coated soluble KDR 250 ng/mL, hybridoma supernatant 1:5

binder | output.unit | KDR OD(450 nm)
anti-KDR monoclonal antibody 31E11 (antibody, V domains shown, Fully human mAb from XenoMouse (IgG2 or IgG4 strain); hybridoma supernatant) VH: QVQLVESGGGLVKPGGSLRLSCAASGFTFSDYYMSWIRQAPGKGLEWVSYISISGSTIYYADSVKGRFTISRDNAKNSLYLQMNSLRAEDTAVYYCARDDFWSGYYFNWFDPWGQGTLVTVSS VL: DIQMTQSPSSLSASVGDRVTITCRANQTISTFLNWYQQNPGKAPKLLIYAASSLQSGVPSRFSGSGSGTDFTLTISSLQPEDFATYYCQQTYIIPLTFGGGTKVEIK | OD450 | 1.14
anti-KDR monoclonal antibody 29F7 (antibody, V domains shown, Fully human mAb from XenoMouse (IgG2 or IgG4 strain); hybridoma supernatant) VH: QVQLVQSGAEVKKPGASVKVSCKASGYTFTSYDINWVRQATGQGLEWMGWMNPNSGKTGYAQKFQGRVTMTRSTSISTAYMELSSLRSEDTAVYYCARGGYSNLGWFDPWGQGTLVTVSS VL: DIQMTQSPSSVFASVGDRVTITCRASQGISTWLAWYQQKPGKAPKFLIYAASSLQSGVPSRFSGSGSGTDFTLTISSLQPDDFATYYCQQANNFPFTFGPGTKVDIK | OD450 | 1.22
anti-KDR monoclonal antibody 30F6 (antibody, V domains shown, Fully human mAb from XenoMouse (IgG2 or IgG4 strain); hybridoma supernatant) VH: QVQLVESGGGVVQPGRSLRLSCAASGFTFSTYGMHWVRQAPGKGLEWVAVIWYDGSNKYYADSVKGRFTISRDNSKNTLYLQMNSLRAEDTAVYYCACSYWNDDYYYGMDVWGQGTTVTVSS VL: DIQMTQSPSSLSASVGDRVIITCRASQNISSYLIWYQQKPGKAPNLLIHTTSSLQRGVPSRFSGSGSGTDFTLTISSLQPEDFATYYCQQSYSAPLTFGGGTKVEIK | OD450 | 0.454
